Target: human ether-à-go-go-related gene (hERG) potassium channel (human, UniProt Q12809);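 also: peak tail current of the secondary pulse compared with the same well before compound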
Sequence (Q12809 whole entry, looked up): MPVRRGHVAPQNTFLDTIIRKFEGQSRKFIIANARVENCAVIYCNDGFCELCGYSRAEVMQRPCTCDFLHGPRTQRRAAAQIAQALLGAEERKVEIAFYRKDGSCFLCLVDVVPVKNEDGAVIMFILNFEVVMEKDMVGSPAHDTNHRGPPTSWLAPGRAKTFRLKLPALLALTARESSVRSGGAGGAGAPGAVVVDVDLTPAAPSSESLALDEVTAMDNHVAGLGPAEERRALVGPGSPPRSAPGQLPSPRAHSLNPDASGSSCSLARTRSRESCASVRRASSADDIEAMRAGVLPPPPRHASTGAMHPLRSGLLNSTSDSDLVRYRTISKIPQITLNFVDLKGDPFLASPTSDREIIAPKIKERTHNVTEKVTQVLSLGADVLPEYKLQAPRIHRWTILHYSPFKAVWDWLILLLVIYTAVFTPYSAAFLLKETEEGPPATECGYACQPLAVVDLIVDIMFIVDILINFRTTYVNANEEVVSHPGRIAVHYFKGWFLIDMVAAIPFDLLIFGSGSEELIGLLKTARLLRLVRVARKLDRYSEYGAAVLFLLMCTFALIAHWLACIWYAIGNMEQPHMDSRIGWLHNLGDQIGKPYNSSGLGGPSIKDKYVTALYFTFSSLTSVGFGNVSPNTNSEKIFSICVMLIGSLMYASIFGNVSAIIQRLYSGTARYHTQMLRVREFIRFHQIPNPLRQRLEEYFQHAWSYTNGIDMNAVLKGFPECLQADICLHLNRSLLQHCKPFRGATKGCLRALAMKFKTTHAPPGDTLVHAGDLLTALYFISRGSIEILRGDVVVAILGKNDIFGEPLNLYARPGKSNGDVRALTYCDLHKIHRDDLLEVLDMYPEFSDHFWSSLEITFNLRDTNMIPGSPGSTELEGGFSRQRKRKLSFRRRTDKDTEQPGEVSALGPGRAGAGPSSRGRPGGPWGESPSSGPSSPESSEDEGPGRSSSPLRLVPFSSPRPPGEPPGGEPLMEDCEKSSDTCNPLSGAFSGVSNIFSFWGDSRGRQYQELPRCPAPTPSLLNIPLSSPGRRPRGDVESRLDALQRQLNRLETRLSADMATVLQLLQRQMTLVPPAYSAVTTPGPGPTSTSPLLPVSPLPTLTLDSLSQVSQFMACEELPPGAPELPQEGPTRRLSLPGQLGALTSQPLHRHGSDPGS
Assay: primary screen, population patch clamp on CHO cells stably expressing hERG; higher = less effect of the substance
Screen size: about 310,000 compounds; about 14,000 (4.5%) showed an effect of 50% or more. Effects have a minus sign here. The sample holds strong results, similar compounds and a random draw of the others, so the mix is not that of the screen.
Please go through the items and note down their hERG current change (%, negative = inhibition) at 10uM.
API: value field is a number in %; no unit string.

Ask | Look up and report measured hERG current change (%, negative = inhibition) at 10uM for this entry: CN1CCC(=NNC(=O)COc2ccc(Cl)cc2)CC1
Reply | 17.4

Ask | Supply recorded hERG current change (%, negative = inhibition) at 10uM for O=[N+]([O-])c1ccc(N2CCNCC2)cc1NCc1ccco1 here.
Reply | -28.2

Ask | Kindly indicate its recorded hERG current change (%, negative = inhibition) at 10uM. Item: CCCN(CCC)c1ncnc2nc[nH]c12
Reply | -7.36

Ask | Provide measured hERG current change (%, negative = inhibition) at 10uM value, entry: CC(C)(C)C(=O)OCc1nc(-c2ccc(Cl)cc2)cs1
Reply | 7.41

Ask | Give hERG current change (%, negative = inhibition) at 10uM for the following compound: CN1CCN(C(=O)Nc2ccccc2)CC1.O=C(O)C(=O)O
Reply | 23.2

Ask | Hello, please tell me recorded hERG current change (%, negative = inhibition) at 10uM for this one: NC1=NC(=O)/C(=C\c2ccco2)S1
Reply | 19.2

Ask | Retrieve hERG current change (%, negative = inhibition) at 10uM measured for CN1CCN(CC(=O)Nc2c(C#N)cnn2-c2ccccc2)CC1 and print it.
Reply | 12.1

Ask | Quickly give me recorded hERG current change (%, negative = inhibition) at 10uM for Cc1cc(N2CCN(c3ccccn3)CC2)n2cc(-c3ccccc3)nc2n1
Reply | -72.3

Ask | Report hERG current change (%, negative = inhibition) at 10uM for Cc1cc(-c2ccccc2)nc(N2CCN(c3ccccn3)CC2)n1
Reply | 1.11

Ask | Return the recorded hERG current change (%, negative = inhibition) at 10uM value; entry: COc1cc(C(CC(=O)N2CCN(c3ccccc3)CC2)c2c(OC)cc(OC)c3ccc(=O)oc23)cc(OC)c1OC (stereo not drawn)
Reply | -29

Ask | Please give the documented hERG current change (%, negative = inhibition) at 10uM of Cc1ccc(C(=O)N2CCN(c3ccc([N+](=O)[O-])c(NCc4ccco4)c3)CC2)cc1
Reply | -50.5

Ask | Let me know recorded hERG current change (%, negative = inhibition) at 10uM for Cc1nnc(SCC(=O)Nc2ccc(N3CCOCC3)cc2)n1-c1ccccc1 , thanks.
Reply | -14.5

Ask | Tell us which hERG current change (%, negative = inhibition) at 10uM value is on record for O=C(NCC1CCCN(Cc2cccc(F)c2)C1)c1cccc2ccccc12 (stereo not drawn)
Reply | -17.6

Ask | Annotate the compound Cc1ccc(S(=O)(=O)NCCSc2ccccc2)cc1[N+](=O)[O-] with its measured hERG current change (%, negative = inhibition) at 10uM.
Reply | -0.246

Ask | Could you please provide reported hERG current change (%, negative = inhibition) at 10uM for CCOC(=O)CN1CCC(c2ccccc2)CC1 ? Thanks!
Reply | -2.19

Ask | Using known records, supply hERG current change (%, negative = inhibition) at 10uM for O=C(c1ccccc1)N1CCN(c2ccc([N+](=O)[O-])c(NCc3ccco3)c2)CC1
Reply | -47.2

Ask | Report hERG current change (%, negative = inhibition) at 10uM for CC(CN1CCC(O)CC1)c1ccccc1 (stereo not drawn)
Reply | 10.6

Ask | Provide hERG current change (%, negative = inhibition) at 10uM value for the following compound: CN1CCN(c2ccc([N+](=O)[O-])c(NCc3ccco3)c2)CC1
Reply | -51.9

Ask | Using the record for O=C(CCC(=O)Nc1ccccc1Cl)N/N=C/c1ccccc1 , state its measured hERG current change (%, negative = inhibition) at 10uM.
Reply | 16.5

Ask | Report hERG current change (%, negative = inhibition) at 10uM for Cc1cc(N2CCN(c3ccccc3)CC2)nc(-c2ccccc2O)n1
Reply | 6.15

Ask | Answer with the recorded hERG current change (%, negative = inhibition) at 10uM of Cc1cc(NC2CCCCC2)n2c(n1)nc1ccccc12 only.
Reply | -55.1

Ask | Look up hERG current change (%, negative = inhibition) at 10uM of c1ccc(-n2nnc3ccccc32)nc1 and report it.
Reply | 3.7

Ask | // fetch hERG current change (%, negative = inhibition) at 10uM given entry CC(C)CC(NS(=O)(=O)c1cccc(C(=O)O)c1)C(=O)O (stereo not drawn)
Reply | 44.6

Ask | Indicate the recorded hERG current change (%, negative = inhibition) at 10uM value for this compound: CC(NC(=O)/C=C/c1ccccc1[N+](=O)[O-])C1CC2CCC1C2 (stereo not drawn)
Reply | 8.42

Ask | Specify measured hERG current change (%, negative = inhibition) at 10uM for Cc1c(C(=O)N(C)CCCCN2CCOCC2)oc2c(F)cccc12 .
Reply | 4.14

Ask | Check the records and state hERG current change (%, negative = inhibition) at 10uM for O=C1N=C(N2CCN(c3ccccc3)CC2)S/C1=C\c1ccco1
Reply | -66.1

Ask | Specify reported hERG current change (%, negative = inhibition) at 10uM for the compound shown: Cc1ccc(NC2=NCC(=O)N2C2CCCC2)cc1.Cl
Reply | 14.7

Ask | Return value of hERG current change (%, negative = inhibition) at 10uM for input O=C(c1cc2ccccc2o1)N1CCN=C1SCc1cccc(F)c1 , no commentary.
Reply | -7.82

Ask | Find the measured hERG current change (%, negative = inhibition) at 10uM of N#C/C(=C\c1ccc(N2CCCC2)c([N+](=O)[O-])c1)c1nc2ccccc2[nH]1 and report it.
Reply | -35.5

Ask | Give me measured hERG current change (%, negative = inhibition) at 10uM, please, for this compound: O=C(CC(C(=O)N1CCc2ccccc21)n1ccnc1)NCc1ccccc1 (stereo not drawn)
Reply | -26.5

Ask | Note down hERG current change (%, negative = inhibition) at 10uM recorded for Cc1ccc(CN2CCSc3ccc(C(=O)NCc4cccnc4)cc32)cc1
Reply | -2.7

Ask | Return the recorded hERG current change (%, negative = inhibition) at 10uM value; entry: CCCCC(O)CN1CCC(c2ccccc2)CC1 (stereo not drawn)
Reply | -56.6

Ask | Please list hERG current change (%, negative = inhibition) at 10uM recorded for the compound Cc1cc(N2CCN(c3ccccc3)CC2)n2cc(-c3ccccc3)nc2n1
Reply | -75.3

Ask | Give hERG current change (%, negative = inhibition) at 10uM for Cc1cc(-c2ccccc2)n(-c2cc(N/N=C/c3ccccc3O)ncn2)n1
Reply | -10.5

Ask | Specify measured hERG current change (%, negative = inhibition) at 10uM for Cc1ccc(NC(=O)N2CCC(NC(=O)c3ccco3)CC2)cc1 .
Reply | 4.55

Ask | Find the measured hERG current change (%, negative = inhibition) at 10uM of Cc1cc(C)c2c(n1)nn1c(N3CCN(c4ccccc4)CC3)cc(C)nc21 and report it.
Reply | 4.66

Ask | Please list hERG current change (%, negative = inhibition) at 10uM recorded for the compound O=C(NCCS(=O)(=O)N1CCN(c2ccccc2F)CC1)c1cccc(Br)c1
Reply | 2.34

Ask | Annotate the compound Cc1cc(N2CCN(c3ccc(F)cc3)CC2)nc(-c2ccccc2)n1 with its measured hERG current change (%, negative = inhibition) at 10uM.
Reply | -13.7

Ask | Give the reported hERG current change (%, negative = inhibition) at 10uM for this compound. CCOCCCNCC(O)c1ccccc1.O=C(O)C(=O)O (stereo not drawn)
Reply | 3.55

Ask | Please give measured hERG current change (%, negative = inhibition) at 10uM of the following entry: COC(=O)c1ccc(CN2C(=O)NC3(CCCCC3C)C2=O)o1 (stereo not drawn)
Reply | -11.4

Ask | Read off the recorded hERG current change (%, negative = inhibition) at 10uM for C=CCn1c(O)c(C=NCCCOc2ccc(CC)cc2)c(=O)[nH]c1=S
Reply | 21.8

Ask | Consider the compound N#C/C(=C\c1ccc(N2CCOCC2)c([N+](=O)[O-])c1)c1nc2ccccc2[nH]1 and give its recorded hERG current change (%, negative = inhibition) at 10uM.
Reply | -59.6

src = paper PMC4336329
